Molecular target: 5-HT7 (Homo sapiens)
Sequence (P34969 whole entry, species assumed): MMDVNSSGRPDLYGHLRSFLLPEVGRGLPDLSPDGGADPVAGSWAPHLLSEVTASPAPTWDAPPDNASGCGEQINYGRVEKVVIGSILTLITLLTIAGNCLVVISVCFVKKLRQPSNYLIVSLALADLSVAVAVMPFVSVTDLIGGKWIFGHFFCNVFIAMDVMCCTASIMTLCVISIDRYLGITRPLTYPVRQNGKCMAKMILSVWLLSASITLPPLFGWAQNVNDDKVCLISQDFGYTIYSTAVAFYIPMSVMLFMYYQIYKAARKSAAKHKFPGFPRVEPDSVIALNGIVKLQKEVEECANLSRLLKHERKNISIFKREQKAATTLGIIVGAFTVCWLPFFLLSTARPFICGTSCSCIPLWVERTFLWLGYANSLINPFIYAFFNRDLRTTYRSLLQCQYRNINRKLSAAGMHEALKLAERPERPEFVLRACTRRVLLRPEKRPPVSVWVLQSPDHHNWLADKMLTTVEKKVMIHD
Assay: Competitive radioligand binding (NIMH PDSP)
Description: Method 1: Competitive binding experiments were performed by the National Institute of Mental Health Psychoactive Drug Screening Program (NIMH PDSP) using described methods or 5-HT2A experiments performed using [3H]-ketanserin displacement in human 5-HT2A expressing membranes. Target compounds were dissolved in DMSO and an initial screen performed to assess displacement of the radioligand from target receptors at a concentration of 10,000 nM. […]

molecule: COc1cc([N+](=O)[O-])c(OC)cc1CCNCc1cccc(O)c1 [25N-NB-3-OH (21)]
Ki: > 10 µM
//
molecule: COc1cc([N+](=O)[O-])c(OC)cc1CCNCc1ccccc1[N+](=O)[O-] [25N-NBNO2 (15)]
Ki: > 10 µM
//
molecule: COc1ccc(OC)c(CNCCc2cc(OC)c([N+](=O)[O-])cc2OC)c1 [25N-NB-2,5-DiMeO (20)]
Ki: > 10 µM
//
molecule: COc1cc([N+](=O)[O-])c(OC)cc1CCN [2C-N (1), reference compound]
Ki: > 10 µM
//
molecule: COc1cc([N+](=O)[O-])c(OC)cc1CCNCc1cccc(C)c1O [25N-NB-2-OH-3-Me (18)]
Ki: 0.871 µM
//
molecule: COc1cc([N+](=O)[O-])c(OC)cc1CCNCc1ccccc1OC [25N-NBOMe (4)]
Ki: > 10 µM
//
molecule: COc1cc([N+](=O)[O-])c(OC)cc1CCNCc1ccccc1I [25N-NBI (10)]
Ki: > 10 µM
//
molecule: COc1cc([N+](=O)[O-])c(OC)cc1CCNCc1cccc2ccccc12 [25N-N-1-Nap (16)]
Ki: 0.186 µM
